The following binders are listed with their measured IC50 of virus neutralization (TZM-BL, luciferase) values.
Target: HIV-1 DU172.17 envelope (Env) on Env.IMC.LucR virus (HIV-1 clade C)
Assay: cell-based or functional assay
Assay metric: IC50 of virus neutralization (TZM-BL, luciferase) (µg/mL)

| Binder | Result units | Endpoint value |
| --- | --- | --- |
| Germ18 (antibody, V domains shown) VH: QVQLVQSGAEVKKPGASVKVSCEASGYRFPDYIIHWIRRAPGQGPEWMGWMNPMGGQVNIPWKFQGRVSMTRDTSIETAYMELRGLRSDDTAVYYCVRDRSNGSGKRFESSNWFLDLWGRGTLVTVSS VL: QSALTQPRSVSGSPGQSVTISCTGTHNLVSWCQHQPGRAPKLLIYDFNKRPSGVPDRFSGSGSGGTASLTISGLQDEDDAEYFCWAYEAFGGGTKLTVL | µg/mL | 0.223 |
| Hydro2 (antibody, V domains shown) VH: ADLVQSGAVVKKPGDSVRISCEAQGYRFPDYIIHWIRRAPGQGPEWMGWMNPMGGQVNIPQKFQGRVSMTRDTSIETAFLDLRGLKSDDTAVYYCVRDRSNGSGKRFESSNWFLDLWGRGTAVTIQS VL: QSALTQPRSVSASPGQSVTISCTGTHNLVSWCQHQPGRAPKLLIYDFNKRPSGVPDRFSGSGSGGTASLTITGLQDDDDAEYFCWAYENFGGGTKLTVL | µg/mL | 0.131 |

Data origin: patent US20210040184A1
